src = paper PMC6994090

Reported values of Kd for individual entries
# ASSAY TARGET: alpha-thrombin (human, UniProt P00734;P00734 328-363;364-622)
# METHOD DESCRIPTION: SPR
Numeric only. Scale: nM

BINDER	UNIT TEXT	Kd
UGAGGUGUUUGGGGUACUACUGGUAAAGGAUUUUCAUCUA (structured_RNA, RNA (U for T); 2'-F C and U, 2'-OH A and G) [Tbn#6]	nM	1.7

Field: next binder
Kd reading for CCUUUGGUUCGGAUAAUUAUUAAGUAUUGUCUUCAUUCA (structured_RNA, RNA (U for T); 2'-F C and U, 2'-OH A and G) [Tbn#3] : 1.4
